B1: FBXO3 (parent)
chain: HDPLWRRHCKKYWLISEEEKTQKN

- Variants of: B1
- test.summary: protein stability index of a GFP-peptide fusion (GPS, HEK-293T) (PSI 1-6); higher = more stable;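 note: lentivirally expressed fusions sorted by FACS into six bins by GFP to DsRed ratio, PSI derived from sequencing read proportions per bin multiplied by bin number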
- experimental.parameters: c terminus: a fixed tail appended

[
  {
    "sequence.code": "HDPLWRRHDKKYWLISEEEKTQKN [C9D]",
    "protein stability index": 4.83
  },
  {
    "sequence.code": "HDPLWRDHCKKYWLISEEEKTQKN [R7D]",
    "protein stability index": 3.8
  },
  {
    "sequence.code": "HDPLWRRHCVKYWLISEEEKTQKN [K10V]",
    "protein stability index": 2.57
  },
  {
    "sequence.code": "HDPLPRRHCKKYWLISEEEKTQKN [W5P]",
    "protein stability index": 3.78
  },
  {
    "sequence.code": "HDPLWRRHCCKYWLISEEEKTQKN [K10C]",
    "protein stability index": 2.27
  },
  {
    "sequence.code": "HDPLWRRHCKKYWLISEEEKTQVN [K23V]",
    "protein stability index": 3.6
  },
  {
    "sequence.code": "HDPLWRRHCKKYWLIGEEEKTQKN [S16G]",
    "protein stability index": 2.95
  },
  {
    "sequence.code": "DDPLWRRHCKKYWLISEEEKTQKN [H1D]",
    "protein stability index": 4.12
  },
  {
    "sequence.code": "HDPHWRRHCKKYWLISEEEKTQKN [L4H]",
    "protein stability index": 3.45
  },
  {
    "sequence.code": "HDPLWRRHCKKYWYISEEEKTQKN [L14Y]",
    "protein stability index": 3.56
  },
  {
    "sequence.code": "HDPLWRRHCKKYWLISAEEKTQKN [E17A]",
    "protein stability index": 3.41
  }
]

Origin of measurements: the supplement of paper PMC10567573
